Molecular target: airway epithelial sodium currents (sodium channel) (UniProt A0A8I3MKE6+A0A8I3Q679+Q95165)
Sequence (A0A8I3MKE6 1-646): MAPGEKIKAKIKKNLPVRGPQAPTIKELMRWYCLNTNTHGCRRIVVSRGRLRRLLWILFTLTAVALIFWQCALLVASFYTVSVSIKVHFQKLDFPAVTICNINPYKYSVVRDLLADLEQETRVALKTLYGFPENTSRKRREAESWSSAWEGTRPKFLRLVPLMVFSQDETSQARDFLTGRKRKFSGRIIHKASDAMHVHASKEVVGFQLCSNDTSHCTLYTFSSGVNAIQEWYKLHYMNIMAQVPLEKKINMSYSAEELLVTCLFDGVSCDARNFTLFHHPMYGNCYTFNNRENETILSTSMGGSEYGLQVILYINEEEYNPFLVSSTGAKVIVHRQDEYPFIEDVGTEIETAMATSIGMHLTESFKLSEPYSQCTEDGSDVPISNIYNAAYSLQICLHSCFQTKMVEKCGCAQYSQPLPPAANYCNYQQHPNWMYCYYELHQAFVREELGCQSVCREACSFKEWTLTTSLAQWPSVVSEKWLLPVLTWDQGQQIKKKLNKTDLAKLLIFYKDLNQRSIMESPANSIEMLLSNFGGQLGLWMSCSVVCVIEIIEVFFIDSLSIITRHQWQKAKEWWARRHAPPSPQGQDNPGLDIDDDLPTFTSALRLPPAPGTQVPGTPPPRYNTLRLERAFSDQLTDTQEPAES
Sequence (A0A8I3Q679 1-649): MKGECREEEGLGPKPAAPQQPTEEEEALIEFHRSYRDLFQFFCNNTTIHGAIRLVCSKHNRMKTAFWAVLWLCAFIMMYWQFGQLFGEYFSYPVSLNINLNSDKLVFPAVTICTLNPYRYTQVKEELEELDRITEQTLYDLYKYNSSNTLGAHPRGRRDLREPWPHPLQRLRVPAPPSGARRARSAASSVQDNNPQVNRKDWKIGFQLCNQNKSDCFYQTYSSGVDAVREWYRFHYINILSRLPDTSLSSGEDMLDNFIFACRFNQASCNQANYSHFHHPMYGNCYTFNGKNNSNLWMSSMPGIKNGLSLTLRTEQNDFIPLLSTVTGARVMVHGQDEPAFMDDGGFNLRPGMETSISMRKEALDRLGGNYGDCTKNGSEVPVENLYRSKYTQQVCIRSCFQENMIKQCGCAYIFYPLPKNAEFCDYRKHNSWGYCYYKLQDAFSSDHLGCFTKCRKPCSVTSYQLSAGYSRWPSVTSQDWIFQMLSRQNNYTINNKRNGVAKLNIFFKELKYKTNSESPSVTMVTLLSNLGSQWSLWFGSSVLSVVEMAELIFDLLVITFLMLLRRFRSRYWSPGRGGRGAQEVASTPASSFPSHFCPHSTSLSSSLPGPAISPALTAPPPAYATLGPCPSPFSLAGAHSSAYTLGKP
Sequence (Q95165 1-641): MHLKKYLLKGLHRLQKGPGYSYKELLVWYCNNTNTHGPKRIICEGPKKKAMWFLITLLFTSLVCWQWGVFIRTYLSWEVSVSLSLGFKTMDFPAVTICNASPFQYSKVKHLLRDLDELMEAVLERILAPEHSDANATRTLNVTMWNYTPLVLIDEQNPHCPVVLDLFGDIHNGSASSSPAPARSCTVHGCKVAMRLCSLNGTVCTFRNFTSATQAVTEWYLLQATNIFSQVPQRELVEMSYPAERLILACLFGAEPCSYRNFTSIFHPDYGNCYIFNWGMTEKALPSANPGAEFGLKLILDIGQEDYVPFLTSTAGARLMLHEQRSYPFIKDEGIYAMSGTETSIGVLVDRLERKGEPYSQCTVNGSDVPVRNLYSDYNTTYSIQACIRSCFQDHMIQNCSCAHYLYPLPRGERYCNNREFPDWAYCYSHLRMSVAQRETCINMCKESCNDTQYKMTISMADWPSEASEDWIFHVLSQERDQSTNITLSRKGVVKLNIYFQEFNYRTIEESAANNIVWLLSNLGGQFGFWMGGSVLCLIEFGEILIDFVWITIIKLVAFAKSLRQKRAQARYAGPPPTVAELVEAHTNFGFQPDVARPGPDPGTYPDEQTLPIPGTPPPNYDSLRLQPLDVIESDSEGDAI
Assay: Sodium channel blocking activity: inhibition of short circuit current (ISC) in airway epithelial monolayers mounted in Ussing chambers
Format: cell-based, human, dog, sheep or rodent
Conditions: Alaphatic Pyrazinoylguanidines; relative potency for PSA 4022 = 100 using EC50 from PSA 4022 in same run
Description: In Vitro Measure of Sodium Channel Blocking Activity and Reversibility One assay used to assess mechanism of action and/or potency of the compounds of the present invention involves the determination of lumenal drug inhibition of airway epithelial sodium currents measured under short circuit current (ISC) using airway epithelial monolayers mounted in Ussing chambers. […] All data from the voltage clamps are collected via a computer interface and analyzed off-line. […]
Counter-ions that a name gives are not always drawn.
observable: Fold Amiloride** (PSA 4022 = 100)
Reply with the value as a number alone.

Examples with answers:
N=C(NCCCCCCN)NC(=O)c1nc(Cl)c(N)nc1N [compound 18706, dihydrochloride]; 4
CC(C)(C)OC(=O)NCCCCCCCCCNC(=N)NC(=O)c1nc(Cl)c(N)nc1N [compound 19484]; 12
N=C(N)NCCCCCCCCCCCCNC(=N)NC(=O)c1nc(Cl)c(N)nc1N [compound 23683, dihydrochloride]; 68
CC(C)(C)OC(=O)NCCCOCCCNC(=N)NC(=O)c1nc(Cl)c(N)nc1N [compound 19333]; 7
N=C(NCCCCCCCCCN)NC(=O)c1nc(Cl)c(N)nc1N [compound 19335, dihydrochloride]; 19
N=C(N)NCCCCCCCCCCNC(=N)NC(=O)c1nc(Cl)c(N)nc1N [compound 23608, dihydrochloride]; 41

Determine from records and report Fold Amiloride** (PSA 4022 = 100) for N=C(N)NCCCCCCCCCCCNC(=N)NC(=O)c1nc(Cl)c(N)nc1N [compound 23991, dihydrochloride]
20

Determine from records and report Fold Amiloride** (PSA 4022 = 100) for N=C(N)NCCCCCCCCCNC(=N)NC(=O)c1nc(Cl)c(N)nc1N [compound 19006, dihydrochloride]
11
